Target: ZIKV envelope domain III ([..]), polyhistidine-AviTag, made in HEK-293-6E cells (Zika virus (KJ776791))
Experiment: ELISA on ZIKV EDIII (Table A)
Settings: remark: other sources report otherwise
value kind: EC50 (µg/mL)

>>> endpoint_result("Z008 (MEX105_60) (antibody, V domains shown) VH: EVQLLESGGGLVRPGGSLRLSCTASGFTFRRFAMAWVRQAPGKGLEWVSLIWNGDDSTYYAESVRGRFTISRDNSHNTLSLQMRSLRAEDTAIYYCVKDRDNGWSSIVDWGQGTLVTVSS VL: DIQMTQSPSTLSASVGDRVTITCRASQTIGNWLAWYQQKPGKAPKLLIYQASVLESGVPSRFSGSGSGTEFTLTISSLQPEDFATYFCQQYSTFWTFGQGTKVEIK")
0.0326
>>> endpoint_result("Z051 (BRA138_59) (antibody, V domains shown) VH: QVQLQESGPGLVKPSQTLSLTCTVSGVSISSGGYYYSWFRQLPGKGLEWIGHIYYTGNTHYNPSLRSRLTISVDTSKNQFSLKLSSVTAADTARYYCARAWCEYAAYCWFDPWGRGTLVTVSS VL: EIVLTQSPGTLSLSPGERATLSCRASQSVTSSYLAWYQHKPGQAPRLLIYGASSRAPGIPDRFSGSGSGTDFTLTISRLEPEDFAVYWCQQYGRSPFTFGQGTKLEIK")
1.86
>>> endpoint_result("Z056 (MEX84_p2-94) (antibody, V domains shown) VH: EVQLVQSGAEVKKPGASVKVSCKASGNTFMGYYFHWVRQAPGQGLEWMGWINPNSGHANIAQTFQGRVTMTRDPSITTAYMELSRLRSDDTAVFYCARGGMLGQLWALDNWGQGTLVTVSS VL: DIQMTQSPSTLSASVGDRVTITCRASQSISHWLAWYQQRPGEAPKLLIYQASTLESGVPSRFSGSGSGTEFTLSISSLQPDDFATYYCQQYQSSPYTFGQGTKLEIK")
0.982
